Recorded log10 of MIC for the following compounds
Tested on: Staphylococcus aureus
Assay: Antibacterial activity against Staphylococcus aureus strain St au 29213
Format: functional
Kindly note that the scale is log10 and the underlying MIC is in µg/mL.

1) O=C(O)c1cn(-c2ccc(O)cc2)c2nc(N3CCNCC3)c(F)cc2c1=O :: 0.19

stdin: Quick one: give measured log10 of MIC for N[C@@H]1CCC[C@@H]2CN(c3nc4c(cc3F)c(=O)c(C(=O)O)cn4-c3ccc(O)cc3)C[C@@H]21
stdout: -0.40

stdin: Quick one: give measured log10 of MIC for COc1c(N2C[C@@H]3[C@@H](N)[C@@H]3C2)c(F)cc2c(=O)c(C(=O)O)cn(-c3ccc(O)cc3)c12
stdout: -1.00

stdin: Quick one: give measured log10 of MIC for COc1c(N2CCC(N)C2)c(F)cc2c(=O)c(C(=O)O)cn(-c3ccc(O)cc3)c12 (stereo unspecified)
stdout: 0.19

stdin: Quick one: give measured log10 of MIC for N[C@@H]1[C@H]2CN(c3nc4c(cc3F)c(=O)c(C(=O)O)cn4-c3ccc(O)cc3)C[C@@H]12
stdout: -0.70

stdin: Quick one: give measured log10 of MIC for C[C@H](N)[C@@H]1CCN(c2nc3c(cc2F)c(=O)c(C(=O)O)cn3-c2ccc(O)cc2)C1
stdout: 0.19

stdin: Quick one: give measured log10 of MIC for COc1c(N2C[C@@H](N)C3(CC3)C2)c(F)cc2c(=O)c(C(=O)O)cn(-c3ccc(O)cc3)c12
stdout: -0.11

stdin: Quick one: give measured log10 of MIC for COc1c(N2CC3CC2CN3)c(F)cc2c(=O)c(C(=O)O)cn(-c3ccc(O)cc3)c12 (stereo unspecified)
stdout: 0.80

stdin: Quick one: give measured log10 of MIC for C[C@@H]1CN(c2nc3c(cc2F)c(=O)c(C(=O)O)cn3-c2ccc(O)cc2)C[C@H]1N
stdout: -0.40

stdin: Quick one: give measured log10 of MIC for C[C@@H]1CN(c2cc3c(cc2F)c(=O)c(C(=O)O)cn3-c2ccc(O)cc2)C[C@H]1N
stdout: -0.70

stdin: Quick one: give measured log10 of MIC for COc1c(N2C[C@@H](C)[C@@H](C)C2)c(F)cc2c(=O)c(C(=O)O)cn(-c3ccc(O)cc3)c12
stdout: -0.11
